Reported values of kon for individual entries
# Tested On: T1, AFP158/HLA-A*02:01 complex (human)
# T1 construct: flowed as analyte in SPR
# Protocol: SPR, crude scFv captured, pMHC analyte;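 also: pMHC analyte injected at three concentrations, association phase of one hundred seconds, then running buffer for dissociation, rates fitted from both curves, KD derived from the rates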
Expressed in M⁻¹ s⁻¹, but write only the number.

[
  {
    "Binder": "AS170036 VL1VH1-56N98Q (scFv, also called 06-AS170036 VL1VH1-56N98Q) scFv: QSALTQPRSVSGSPGQSVTISCAGTSSDVGSENYVSWYQQHPGKAPKLMIYQVNKRASGVPDRFSGSKSGNTASLTISGLQAEDEADYYCASYRSSDQNIVFGGGTKLTVLGGGGSGGGGSGGGGSEVQLVESGGGLVQPGGSLRLSCAASGFTFSSYAMSWVRQAPGKGLEWVSTINSGTNSPYYADSVKGRFTISRDNSKNTLYLQMNSLRAEDTAVYYCAKNFFDGSWFLGPPAMDYWGQGTLVTVSSHHHHHH",
    "Observed": 250000
  },
  {
    "Binder": "AS170036 VL1VH1-57M98Q (scFv, also called 15-AS170036 VL1VH1-57M98Q) scFv: QSALTQPRSVSGSPGQSVTISCAGTSSDVGSENYVSWYQQHPGKAPKLMIYQVNKRASGVPDRFSGSKSGNTASLTISGLQAEDEADYYCASYRSSDQNIVFGGGTKLTVLGGGGSGGGGSGGGGSEVQLVESGGGLVQPGGSLRLSCAASGFTFSSYAMSWVRQAPGKGLEWVSTINSGTGMPYYADSVKGRFTISRDNSKNTLYLQMNSLRAEDTAVYYCAKNFFDGSWFLGPPAMDYWGQGTLVTVSSHHHHHH",
    "Observed": 240000
  }
]

Now look at this one.
Reported kon for AS170036 VL1VH1-56N108D (scFv, also called 20-AS170036 VL1VH1-56N108D) scFv: QSALTQPRSVSGSPGQSVTISCAGTSSDVGSENYVSWYQQHPGKAPKLMIYQVNKRASGVPDRFSGSKSGNTASLTISGLQAEDEADYYCASYRSSDHNIVFGGGTKLTVLGGGGSGGGGSGGGGSEVQLVESGGGLVQPGGSLRLSCAASGFTFSSYAMSWVRQAPGKGLEWVSTINSGTNSPYYADSVKGRFTISRDNSKNTLYLQMNSLRAEDTAVYYCAKNFFDGSWFLDPPAMDYWGQGTLVTVSSHHHHHH : what is it? 270000
